# PROTOCOL DETAILS: 1H NMR titration with TBACl, Cl− binding
# SETTINGS: association constant towards Cl−, compound 2.5 mM, 95% DMSO-d6, 1:1 binding model (Bindfit), errors below 10%
PROPERTY: K a (M⁻¹)
Response body: numeric value in M⁻¹, unit text excluded.

K a reading for O=c1c(Nc2ccc(Cl)c(Cl)c2)c(NC23CC4CC(CC(C4)C2)C3)c1=O : 263

What the record says about O=c1c(Nc2ccc(Cl)cc2)c(NC23CC4CC(CC(C4)C2)C3)c1=O : K a is 207

K a reading for O=c1c(Nc2ccc([N+](=O)[O-])cc2)c(NC23CC4CC(CC(C4)C2)C3)c1=O : 202

Notebook: O=c1c(Nc2cc(C(F)(F)F)cc(C(F)(F)F)c2)c(NC23CC4CC(CC(C4)C2)C3)c1=O , K a read as 235

The reported value for O=c1c(Nc2ccccc2)c(NC23CC4CC(CC(C4)C2)C3)c1=O in terms of K a is 138

Measured K a, O=c1c(Nc2ccccc2Cl)c(NC23CC4CC(CC(C4)C2)C3)c1=O : 44

----------
# Tested on: methicillin-resistant S. aureus (MRSA)
# PROTOCOL DETAILS: Growth inhibition assay, MRSA
# Type: cell-based, Staphylococcus aureus
# SETTINGS: Staphylococcus aureus, MRSA, 24 h, read-out: MRSA IC50, growth (OD 600 nm) relative to control, 24 h, 37 °C
PROPERTY: pIC50
pIC50 is a log-scale quantity: -log10 of the concentration expressed in molar.

The compound O=c1c(Nc2cc(C(F)(F)F)cc(C(F)(F)F)c2)c(NC23CC4CC(CC(C4)C2)C3)c1=O showed pIC50 equal to 5.81

Entry O=c1c(Nc2ccc(Cl)c(Cl)c2)c(NC23CC4CC(CC(C4)C2)C3)c1=O — recorded pIC50 = 4.60

In plain terms, O=c1c(Nc2ccc([N+](=O)[O-])cc2)c(NC23CC4CC(CC(C4)C2)C3)c1=O has a documented pIC50 of 4.30

----------
# Test system: S. aureus
# PROTOCOL DETAILS: Growth inhibition assay, S. aureus
# Format: cell-based, Staphylococcus aureus
# SETTINGS: Staphylococcus aureus; growth (OD 600 nm) relative to control, 24 h, 37 °C
PROPERTY: pIC50
// pIC50 is dimensionless: -log10 of concentration (M)

Form field pIC50, entry O=c1c(Nc2ccc(Cl)c(Cl)c2)c(NC23CC4CC(CC(C4)C2)C3)c1=O : 4.20

Measured pIC50, O=c1c(Nc2cc(C(F)(F)F)cc(C(F)(F)F)c2)c(NC23CC4CC(CC(C4)C2)C3)c1=O : 6.11

Form field pIC50, entry O=c1c(Nc2ccc([N+](=O)[O-])cc2)c(NC23CC4CC(CC(C4)C2)C3)c1=O : 3.77

----------
# Test system: S. aureus
# PROTOCOL DETAILS: Growth inhibition assay, S. aureus
# Assay type: cell-based, Staphylococcus aureus
# SETTINGS: Staphylococcus aureus, 24 h, growth (OD 600 nm) relative to control, 37 °C
Kindly state IC80 for each of the entries shown.

Briefly, IC80 measured for O=c1c(Nc2ccc(Cl)c(Cl)c2)c(NC23CC4CC(CC(C4)C2)C3)c1=O [Compound 2] : 250 µM

IC80 in this record for O=c1c(Nc2ccc(Cl)cc2)c(NC23CC4CC(CC(C4)C2)C3)c1=O [Compound 3] : > 200 µM

Query O=c1c(Nc2ccccc2Cl)c(NC23CC4CC(CC(C4)C2)C3)c1=O [Compound 5] yields IC80 of > 200 µM

// field: IC80; key: O=c1c(Nc2cc(C(F)(F)F)cc(C(F)(F)F)c2)c(NC23CC4CC(CC(C4)C2)C3)c1=O [Compound 1] ; value = ~200 µM

Notebook: O=c1c(Nc2ccccc2)c(NC23CC4CC(CC(C4)C2)C3)c1=O [Compound 6] , IC80 read as > 200 µM

----------
# Test system: methicillin-resistant S. aureus (MRSA)
# PROTOCOL DETAILS: Growth inhibition assay, MRSA
# Format: cell-based, Staphylococcus aureus
# SETTINGS: Staphylococcus aureus, MRSA, 24 h, read-out: MRSA IC50, growth (OD 600 nm) relative to control, 24 h, 37 °C
Give IC50 for every item shown.

Value of IC50 reported for the molecule O=c1c(Nc2ccccc2)c(NC23CC4CC(CC(C4)C2)C3)c1=O is > 200 µM

Summary for this molecule, O=c1c(Nc2ccc(Cl)cc2)c(NC23CC4CC(CC(C4)C2)C3)c1=O : IC50 is > 200 µM

Item: O=c1c(Nc2ccccc2Cl)c(NC23CC4CC(CC(C4)C2)C3)c1=O | IC50: > 200 µM

----------
For each of the molecules below, state its IC50.
# System: S. aureus
# PROTOCOL DETAILS: Growth inhibition assay, S. aureus
# Type: cell-based, Staphylococcus aureus
# SETTINGS: Staphylococcus aureus; growth (OD 600 nm) relative to control, 24 h, 37 °C

The recorded IC50 for O=c1c(Nc2ccc(Cl)cc2)c(NC23CC4CC(CC(C4)C2)C3)c1=O is > 200 µM

The value of IC50 measured for the molecule O=c1c(Nc2ccccc2Cl)c(NC23CC4CC(CC(C4)C2)C3)c1=O turned out to be > 200 µM

Form: molecule = O=c1c(Nc2ccccc2)c(NC23CC4CC(CC(C4)C2)C3)c1=O ; IC50 = > 200 µM
